target.entity: T1, mouse programmed cell death protein 1 Fc fusion protein (mPD-1-Fc), mPD-1 C60S (aa 25-167) (Mus musculus, UniProt Q02242, stabilised)
T1 construct: not cleaved; source: Expi293F, purified (Protein A, SEC; dimeric fraction); not shown: Fc (human), C-terminal, kept
assay.comment: SPR; Carterra LSA; Fab from the ammonium sulfate precipitate of the culture supernatant immobilised on a NiHC200M chip; hPD-1 (1-1024 nM) or mPD-1-Fc (4-1024 nM) as analyte, fourfold dilution series, no regeneration; HBS-EP pH 7.4, 25 °C; medians over the spots of a construct, KD = koff/kon
condition.set: one partner purified
// classify(record): look up kon in ranges lo = under 30000 M⁻¹ s⁻¹, mid = from 30000 M⁻¹ s⁻¹ up to 40000 M⁻¹ s⁻¹, hi = 40000 M⁻¹ s⁻¹ and over

binder="toripalimab Fab L.V56A (Fab, V domains shown, as the heavy chain of Sm3; light chain of Sm3 with this change; numbers count from the chain's first residue; source: Brevibacillus, culture supernatant (ammonium sulfate precipitate); not shown: 6xHis, C-terminal, kept; 6xHN, C-terminal, kept) VH: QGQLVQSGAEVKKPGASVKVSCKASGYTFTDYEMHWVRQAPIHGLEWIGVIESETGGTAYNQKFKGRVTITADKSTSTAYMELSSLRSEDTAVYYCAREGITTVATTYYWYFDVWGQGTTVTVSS VL: DVVMTQSPLSLPVTLGQPASISCRSSQSIVHSNGNTYLEWYLQKPGQSPQLLIYKASNRFSGVPDRFSGSGSGTDFTLKISRVEAEDVGVYYCFQGSHVPLTFGQGTKLEIK" cat=mid
binder="toripalimab Fab L.L101N (Fab, V domains shown, as the heavy chain of Sm3; light chain of Sm3 with this change; numbers count from the chain's first residue; source: Brevibacillus, culture supernatant (ammonium sulfate precipitate); not shown: 6xHis, C-terminal, kept; 6xHN, C-terminal, kept) VH: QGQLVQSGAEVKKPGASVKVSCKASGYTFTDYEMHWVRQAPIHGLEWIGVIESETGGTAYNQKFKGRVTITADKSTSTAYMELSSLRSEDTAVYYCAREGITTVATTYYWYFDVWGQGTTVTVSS VL: DVVMTQSPLSLPVTLGQPASISCRSSQSIVHSNGNTYLEWYLQKPGQSPQLLIYKVSNRFSGVPDRFSGSGSGTDFTLKISRVEAEDVGVYYCFQGSHVPNTFGQGTKLEIK" cat=mid
binder="toripalimab Fab H.S53A (Fab, V domains shown, heavy chain of Sm3 with this change; numbers count from the chain's first residue; as the light chain of Sm3; source: Brevibacillus, culture supernatant (ammonium sulfate precipitate); not shown: 6xHis, C-terminal, kept; 6xHN, C-terminal, kept) VH: QGQLVQSGAEVKKPGASVKVSCKASGYTFTDYEMHWVRQAPIHGLEWIGVIEAETGGTAYNQKFKGRVTITADKSTSTAYMELSSLRSEDTAVYYCAREGITTVATTYYWYFDVWGQGTTVTVSS VL: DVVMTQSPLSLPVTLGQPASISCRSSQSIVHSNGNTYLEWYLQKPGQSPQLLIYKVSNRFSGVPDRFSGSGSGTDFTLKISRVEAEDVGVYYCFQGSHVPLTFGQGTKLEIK" cat=hi
binder="toripalimab Fab H.T106Y (Fab, V domains shown, heavy chain of Sm3 with this change; numbers count from the chain's first residue; as the light chain of Sm3; source: Brevibacillus, culture supernatant (ammonium sulfate precipitate); not shown: 6xHis, C-terminal, kept; 6xHN, C-terminal, kept) VH: QGQLVQSGAEVKKPGASVKVSCKASGYTFTDYEMHWVRQAPIHGLEWIGVIESETGGTAYNQKFKGRVTITADKSTSTAYMELSSLRSEDTAVYYCAREGITTVAYTYYWYFDVWGQGTTVTVSS VL: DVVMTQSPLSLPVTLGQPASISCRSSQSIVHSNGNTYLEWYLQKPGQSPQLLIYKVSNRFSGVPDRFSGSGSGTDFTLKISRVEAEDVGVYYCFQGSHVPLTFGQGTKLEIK" cat=hi
binder="toripalimab Fab L.V30Y (Fab, V domains shown, as the heavy chain of Sm3; light chain of Sm3 with this change; numbers count from the chain's first residue; source: Brevibacillus, culture supernatant (ammonium sulfate precipitate); not shown: 6xHis, C-terminal, kept; 6xHN, C-terminal, kept) VH: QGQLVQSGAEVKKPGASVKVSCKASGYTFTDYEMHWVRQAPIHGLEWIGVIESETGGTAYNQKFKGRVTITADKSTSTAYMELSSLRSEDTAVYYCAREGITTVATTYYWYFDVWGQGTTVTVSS VL: DVVMTQSPLSLPVTLGQPASISCRSSQSIYHSNGNTYLEWYLQKPGQSPQLLIYKVSNRFSGVPDRFSGSGSGTDFTLKISRVEAEDVGVYYCFQGSHVPLTFGQGTKLEIK" cat=hi
binder="toripalimab Fab H.F64Y (Fab, V domains shown, heavy chain of Sm3 with this change; numbers count from the chain's first residue; as the light chain of Sm3; source: Brevibacillus, culture supernatant (ammonium sulfate precipitate); not shown: 6xHis, C-terminal, kept; 6xHN, C-terminal, kept) VH: QGQLVQSGAEVKKPGASVKVSCKASGYTFTDYEMHWVRQAPIHGLEWIGVIESETGGTAYNQKYKGRVTITADKSTSTAYMELSSLRSEDTAVYYCAREGITTVATTYYWYFDVWGQGTTVTVSS VL: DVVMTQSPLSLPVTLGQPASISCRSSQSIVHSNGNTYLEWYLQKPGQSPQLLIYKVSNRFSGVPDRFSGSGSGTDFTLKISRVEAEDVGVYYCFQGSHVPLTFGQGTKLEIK" cat=hi
binder="toripalimab Fab L.P100T (Fab, V domains shown, as the heavy chain of Sm3; light chain of Sm3 with this change; numbers count from the chain's first residue; source: Brevibacillus, culture supernatant (ammonium sulfate precipitate); not shown: 6xHis, C-terminal, kept; 6xHN, C-terminal, kept) VH: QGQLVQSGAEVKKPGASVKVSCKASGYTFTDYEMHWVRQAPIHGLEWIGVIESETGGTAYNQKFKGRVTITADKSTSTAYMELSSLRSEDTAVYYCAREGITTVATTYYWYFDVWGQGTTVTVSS VL: DVVMTQSPLSLPVTLGQPASISCRSSQSIVHSNGNTYLEWYLQKPGQSPQLLIYKVSNRFSGVPDRFSGSGSGTDFTLKISRVEAEDVGVYYCFQGSHVTLTFGQGTKLEIK" cat=lo
binder="toripalimab Fab L.V99W (Fab, V domains shown, as the heavy chain of Sm3; light chain of Sm3 with this change; numbers count from the chain's first residue; source: Brevibacillus, culture supernatant (ammonium sulfate precipitate); not shown: 6xHis, C-terminal, kept; 6xHN, C-terminal, kept) VH: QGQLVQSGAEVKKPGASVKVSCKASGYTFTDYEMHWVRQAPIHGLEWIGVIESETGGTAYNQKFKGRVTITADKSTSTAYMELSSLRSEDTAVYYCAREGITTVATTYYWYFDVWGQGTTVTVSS VL: DVVMTQSPLSLPVTLGQPASISCRSSQSIVHSNGNTYLEWYLQKPGQSPQLLIYKVSNRFSGVPDRFSGSGSGTDFTLKISRVEAEDVGVYYCFQGSHWPLTFGQGTKLEIK" cat=lo
binder="toripalimab Fab H.V50A (Fab, V domains shown, heavy chain of Sm3 with this change; numbers count from the chain's first residue; as the light chain of Sm3; source: Brevibacillus, culture supernatant (ammonium sulfate precipitate); not shown: 6xHis, C-terminal, kept; 6xHN, C-terminal, kept) VH: QGQLVQSGAEVKKPGASVKVSCKASGYTFTDYEMHWVRQAPIHGLEWIGAIESETGGTAYNQKFKGRVTITADKSTSTAYMELSSLRSEDTAVYYCAREGITTVATTYYWYFDVWGQGTTVTVSS VL: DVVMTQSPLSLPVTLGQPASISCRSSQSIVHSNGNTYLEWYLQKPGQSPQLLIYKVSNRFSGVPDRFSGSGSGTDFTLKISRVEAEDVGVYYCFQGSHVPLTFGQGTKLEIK" cat=mid
binder="toripalimab Fab L.N33A (Fab, V domains shown, as the heavy chain of Sm3; light chain of Sm3 with this change; numbers count from the chain's first residue; source: Brevibacillus, culture supernatant (ammonium sulfate precipitate); not shown: 6xHis, C-terminal, kept; 6xHN, C-terminal, kept) VH: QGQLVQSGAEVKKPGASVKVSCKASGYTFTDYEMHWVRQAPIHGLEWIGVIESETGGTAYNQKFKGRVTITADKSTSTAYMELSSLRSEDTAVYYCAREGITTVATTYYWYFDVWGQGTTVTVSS VL: DVVMTQSPLSLPVTLGQPASISCRSSQSIVHSAGNTYLEWYLQKPGQSPQLLIYKVSNRFSGVPDRFSGSGSGTDFTLKISRVEAEDVGVYYCFQGSHVPLTFGQGTKLEIK" cat=hi
